target: human GLP-1 receptor (human, UniProt P43220 24-463); assay: cell-based or functional assay
Attribute: Emax, cAMP
endpoint: Emax, cAMP (%)

binder: YXEGTXTSDXSIXLDXKAQXEFIXXLIKGGPSSGAPPPS (Aib2, αMeF(2F)6, 4Pal10, αMeL13, Orn16, Aib20, D-Glu24, αMeY25, K17 and K28: K(AEEA2-(γ-Glu)-CO-(CH2)10-CH3), C-terminal NH2) [Example 139]
measurement: 111
--
binder: YXEGTXTSDXSIXLDXKAQXEXIKYLIEGGPSSGAPPPS (Aib2, αMeF(2F)6, 4Pal10, αMeL13, Orn16, Aib20, αMeF22, K17 and K24: K(AEEA2-(γ-Glu)-CO-(CH2)12-CO2H), C-terminal NH2) [Example 85]
measurement: 95.3
--
binder: YXEGTXTSDXGIXLDXKAQXEFIXXLIEGGKSSGAPPPS (Aib2, αMeF(2F)6, 4Pal10, αMeL13, Orn16, Aib20, D-Glu24, αMeY25, K17 and K31: K(AEEA2-(γ-Glu)-CO-(CH2)12-CO2H), C-terminal NH2) [Example 100]
measurement: 111
